assay: gradient 5% acetonitrile 3 min, to 50% in 2 min, to 85% in 15 min, held 3 min, 100 µL/min
study-conditions: column: Zorbax Extend-C18 2.1 x 50 mm; eluents: water / acetonitrile, 0.1% formic acid
observed-property: RP-LC retention time (s)

>>> df
                                    molecule  unit_label  number
 0     COCCNC(=O)Nc1ccc(CCc2nc3ccccc3n2C)cc1           s     583
 1  COc1ccc(-c2nnc(COc3cccc(NC(=O)C(NC(=O)c4ccco4)C(C)C)c3)o2)cc1 (configuration not stated)           s    1010
 2  CCCn1ccc2sc(C)c(C(=O)NCc3cccc(Cl)c3)c2c1=O           s     990
 3  Cc1cc(C)cc(C(=O)N2CCN(c3nnc4ccccn34)CC2)c1           s     657
 4  O=C(c1cn(-c2cc(N3CCSCC3)ncn2)cn1)N1CCSCC1           s     774
 5  O=C(NCc1ccccn1)c1nnn(Cc2ccccc2Cl)c1-n1cccc1           s     712
 6  CCN1CCN(c2ccc(-c3nc(-c4ccc(C)cc4)no3)cn2)CC1           s     715
 7  O=S(=O)(c1cc(-c2nnc(C3CC3)o2)co1)N1CCOCC1           s     730
 8                Nc1nc(Cl)cc(Nc2ccccc2Cl)n1           s     845
 9  COc1ccc(C(=O)N2CCCn3nc(-c4cccs4)cc3C2)c(OC)c1           s     798
10  Cc1noc([C@@H]2CN(Cc3cccc(Cl)c3)C[C@H]2CO)n1           s     603
11  O=C(NC1(c2nc(-c3cccnc3)no2)CCCCC1)c1ccoc1           s     802
12  COc1ccc(CC(=O)Nc2ccc(-c3nc(C)no3)cc2)cc1OC           s     735
13  CCOc1ccc(-c2noc(N3CCC(C(=O)N4CCCC4)CC3)n2)cc1OC           s     782
14   Cc1ccc(Cl)cc1NC(=O)CSc1ccc(N2CCOCC2)nn1           s     766
15  COc1cc(Cl)ccc1C(=O)N(CC1CCOC1)C1CC1 (configuration not stated)           s     803
16  Cc1noc(/C=C/c2ccc(S(=O)(=O)N3CCOCC3)s2)c1NC(=O)C1CC1           s     778

---

assay: gradient 5% acetonitrile 3 min, to 50% in 2 min, to 85% in 15 min, held 3 min, 100 µL/min
study-conditions: column: Zorbax Extend-C18 2.1 x 50 mm; eluents: water / acetonitrile, 0.1% formic acid
observed-property: RP-LC retention time (s)

Consider the following illustrative entries.
In [3]: df
Out[3]:
                                   molecule     observed_property  unit_label  number
0  O=c1n(Cc2ccccc2F)nc2c(S(=O)(=O)N3CCOCC3)cccn12  RP-LC retention time           s     745
1  O=C(Cn1c(=O)c(=O)n(Cc2ccccc2)c2ncccc21)NCCc1ccco1  RP-LC retention time           s     797
2  COc1cc(OC)c(NC(=O)C2CC(=O)N(c3cccc(NC(C)=O)c3)C2)cc1Cl (stereo not given)  RP-LC retention time           s     712
3  Cc1ccccc1NC(=O)Cn1nc2nc(N3CCCC(C)C3)ccn2c1=O (stereo not given)  RP-LC retention time           s     798
4  CN(C)[C@@H]1CN(C(=O)CC2CCCCC2)CC[C@@H]1CO  RP-LC retention time           s     615

(P) CC(C)CCNC(=O)Cn1c(=O)c2cnc(-c3ccc(Cl)cc3)nc2n(C)c1=O
(Q) COc1cccc(-c2nc(C3CCN(S(=O)(=O)c4ccc(C)c(C)c4)CC3)no2)c1
// which entry reports the smaller RP-LC retention time, P or Q ? Which one? Tell me its label. P

---

assay: gradient 5% acetonitrile 3 min, to 50% in 2 min, to 85% in 15 min, held 3 min, 100 µL/min
study-conditions: column: Zorbax Extend-C18 2.1 x 50 mm; eluents: water / acetonitrile, 0.1% formic acid
observed-property: RP-LC retention time (s)

                                   compound  number
0  CCc1ccc(S(=O)(=O)c2cnc(N3CCN(C4CCCCC4)CC3)nc2N)cc1     706
1  O=C(O)C(c1ccccc1)n1cnnn1 (stereo not drawn)     585
2  CN(C)C(=O)CCc1ccc2c(c1)CN(C(=O)C1COc3ccccc3O1)CCO2 (stereo not drawn)     790

---

assay: gradient 5% acetonitrile 3 min, to 50% in 2 min, to 85% in 15 min, held 3 min, 100 µL/min
study-conditions: column: Zorbax Extend-C18 2.1 x 50 mm; eluents: water / acetonitrile, 0.1% formic acid
observed-property: RP-LC retention time (s)

(P) COc1ccc2nc(NC(=O)C3CCN(c4nc(-c5ccc(OC)c(OC)c5)no4)CC3)sc2c1
(Q) CCSc1nc(O)cc(=O)[nH]1
// which entry reports the smaller RP-LC retention time, P or Q ? Which one? Tell me its label. Q

(a) CCc1noc(-c2ccc(-n3cnc(C(=O)N4CCOCC4)c3)nc2)n1
(b) CCCN1C(=O)c2cc(S(=O)(=O)Nc3ccccc3Cl)ccc2Oc2cccnc21
// which entry reports the smaller RP-LC retention time, a or b ? Which one? Tell me its label. a
(a: 691 s, b: 1090 s)

(A) CC(C)CNC(=O)C1CC(=O)N(CCc2c[nH]c3ccc(Cl)cc23)C1 (centres undefined)
(B) COc1ccc(-c2nnc(SCc3ccc(Br)cc3)o2)cc1
Recorded RP-LC retention time values differ for A and B ; which one is higher? Which one? Tell me its label. B

---

assay: gradient 5% acetonitrile 3 min, to 50% in 2 min, to 85% in 15 min, held 3 min, 100 µL/min
study-conditions: column: Zorbax Extend-C18 2.1 x 50 mm; eluents: water / acetonitrile, 0.1% formic acid
observed-property: RP-LC retention time (s)

Consider the following illustrative entries.
>>> print(df.to_string())
                                   compound     observed_property  number
0  CCOCCCNC(=O)COc1nc(C)nc2onc(-c3ccccc3)c12  RP-LC retention time     846
1  CCN1C(=O)c2cc(S(=O)(=O)Nc3ccc(F)c(C)c3)ccc2Oc2cccnc21  RP-LC retention time    1060
2  CCc1nc(OCC(=O)NCCOC)c2c(-c3ccc(F)cc3)noc2n1  RP-LC retention time     845
3  Cn1c(N2CCC(C(=O)N3CCN(c4ccc(Cl)cc4)CC3)CC2)cc(=O)n(C)c1=O  RP-LC retention time     721

(a) COc1ccc(S(=O)(=O)Nc2cccc(-c3cn4cccc(C)c4n3)c2)cc1OC
(b) O=C(NC1(c2nc(-c3ccccc3)no2)CCCCC1)c1ccccc1F
// which entry reports the smaller RP-LC retention time, a or b ? Which one? Tell me its label. a

---

assay: gradient 5% acetonitrile 3 min, to 50% in 2 min, to 85% in 15 min, held 3 min, 100 µL/min
study-conditions: column: Zorbax Extend-C18 2.1 x 50 mm; eluents: water / acetonitrile, 0.1% formic acid
observed-property: RP-LC retention time (s)

>>> df
                                    compound     observed_property  unit_label  number
 0             CCNC(=O)c1cc(C)nc2ccc(Cl)cc12  RP-LC retention time           s     649
 1  Cc1ccc(C(=O)N2CCOc3ccc(NC(=O)C4CC4)cc3C2)s1  RP-LC retention time           s     790
 2  CCOc1ccc(NC(=O)C2CCN(S(=O)(=O)c3ccc4c(c3)NC(=O)C(C)O4)CC2)cc1 (stereo unspecified)  RP-LC retention time           s     880
 3  COc1ccc(-c2noc(C3CC(=O)N(c4ccc5c(c4)OCCO5)C3)n2)cc1 (stereo unspecified)  RP-LC retention time           s     897
 4  CC(C)N(C(=O)Cn1c(CN2CCCCC2)nc2ccccc21)c1ccccc1  RP-LC retention time           s     738
 5  COc1ccc(CNc2nc(NCc3ccc(OC)cc3)c3ncn(C(C)C)c3n2)cc1  RP-LC retention time           s     809
 6       Cc1cc(C)n2nc(SCC(=O)Nc3ccccc3)nc2n1  RP-LC retention time           s     700
 7  CSc1cccc(NC(=O)Nc2c(-c3ccncc3)nc3ccccn23)c1  RP-LC retention time           s     623
 8  CCc1ccc(NC(=O)CN2C(=O)C3CCCCN3c3ccc(S(=O)(=O)N(C)C)cc32)cc1 (stereo unspecified)  RP-LC retention time           s     817
 9  Cc1cc(F)ccc1N1C(=O)CN(S(C)(=O)=O)CC1(C)C(=O)NC1CCCCC1 (stereo unspecified)  RP-LC retention time           s     822
10  Cc1noc(-c2cccnc2N2CCCN(Cc3ccc(F)cc3)CC2)n1  RP-LC retention time           s     634
